# test.details: NCI Yeast Anticancer Drug Screen. Data for the wt1 strain (AID 149);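 further: 0% = growth of vehicle-treated wt1 cultures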
# particulars: S. cerevisiae wt1 strain (SPY 50644) growth inhibition; at 100.0 µM
About 79,000 compounds went through this panel and 15% of them were active in at least one assay; those are over-represented in the sample as a whole. The source made the active and inactive calls. No stated cut-off is given here; in the data, active means growth inhibition above about 70%; inactive means the rest. Starred links: 1 amine or outer side, 2 acyl side, 3 side chain; linkers in the order of their positions; H or OH if unused. Positions of bridges follow the written chain, without caps; N, C: chain ends. Non-standard residues stand in square brackets, D forms with d. Residues, ends and D or L forms follow the SMILES beside them. Chains are numbered I, II in the order given. Actinocin(9to1) = Cc1c2oc3c(C)ccc(C(=O)[*:1])c3nc-2c(C(=O)[*:2])c(N)c1=O; aThr = C[C@H](O)[C@H](N)C(=O)O; NMeV = CN[C@H](C(=O)O)C(C)C; Sar = CNCC(=O)O
Answer with one of the outcomes active, inactive

For orientation, consider the following solved cases.
[[record]]
molecule = "Cc1cc(NCCCN(C)C)c2ccc3c(ccc4c(NCCCN(C)C)cc(C)nc43)c2n1"
classification = "inactive"

[[record]]
molecule = "Nc1ccc2cc(Br)c3ccccc3c2c1"
classification = "active"

[[record]]
molecule = "CCCCCCCCCCCCCCCCCN"
classification = "active"

[[record]]
molecule = "Cc1cc(N(CCOS(C)(=O)=O)CCOS(C)(=O)=O)ccc1C=O"
classification = "inactive"

[[record]]
molecule = "Cc1c2oc3c(C)ccc(C(=O)N[C@@H]4C(=O)N[C@H](C(C)C)C(=O)N5CCC[C@H]5C(=O)N(C)CC(=O)N(C)[C@@H](C(C)C)C(=O)O[C@H]4C)c3nc-2c(C(=O)N[C@@H]2C(=O)N[C@H](C(C)C)C(=O)N3CCC[C@H]3C(=O)N(C)CC(=O)N(C)[C@@H](C(C)C)C(=O)O[C@H]2C)c(N)c1=O (I: [aThr][dV]P[Sar][NMeV] / II: [aThr][dV]P[Sar][NMeV]; ester I:1-I:C, II:1-II:C; linker I:N-II:N via Actinocin(9to1))"
classification = "active"

[[record]]
molecule = "CCC(C)C(=O)OCC(=O)c1ccc(-c2ccccc2)cc1 (configuration not stated)"
classification = "inactive"


Alright, here's another molecule for you.
Dear colleague, could you share the recorded outcome for `Cc1cc(NC(=S)SCc2ccc(Cl)cc2)ccc1Cl` when you have a moment?
active

###

# test.details: NCI Yeast Anticancer Drug Screen. Data for the rad50 strain (AID 155);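 further: 0% = growth of vehicle-only cultures of the same strain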
# particulars: S. cerevisiae rad50 strain growth inhibition; at 50.0 µM (retest, dose inferred, filed as 5.0)
This is part of a sample that, as a whole, favours compounds with a hit. Of some 79,000 tested, about 15% had one in any assay. Active and inactive are the calls of the source. Rule as the data show it: active = growth inhibition above about 70%; inactive = the rest.
Answer with one of the outcomes label 1 for active, label 0 for inactive

[[record]]
compound = "COc1cc(NCCCCCNC(C)C)c2ncccc2c1Cl"
classification = "label 0"

[[record]]
compound = "O=C1C=CC(=Nc2ccc3c(c2)Cc2cc(Cl)ccc2-3)O1"
classification = "label 1"


Dear colleague, could you share the recorded outcome for `O=C(O)[C@H]1[C@@H](C2CCCCC2)O[C@@H](C2CCCCC2)O[C@H]1C(F)(F)F` when you have a moment?
label 0

Dear colleague, could you share the recorded outcome for `Cc1ccc2c(/C=C/c3ccc(N(C)C)cc3)ccnc2c1C` when you have a moment?
label 0

Dear colleague, could you share the recorded outcome for Cc1c(N=Nc2ccc(Cl)cc2)c(C)n(C2OC(CO)C(O)C(O)C2O)c(=S)c1C#N (configuration not stated) when you have a moment?
label 0

Dear colleague, could you share the recorded outcome for `CCOc1ccc2ccc3cccnc3c2n1` when you have a moment?
label 0

Dear colleague, could you share the recorded outcome for `Cc1cccc(N2CCN(C(=O)/C(=C/c3ccccc3)NC(=O)c3ccccc3)CC2)c1` when you have a moment?
label 0

Dear colleague, could you share the recorded outcome for `S=c1[nH]nc(Cc2ccccc2)c(=S)[nH]1` when you have a moment?
label 0

Dear colleague, could you share the recorded outcome for `O=Cn1c2ccccc2c2ccccc21` when you have a moment?
label 1

Dear colleague, could you share the recorded outcome for `CCOC(=O)C1=C(C)NC(C)=C(C(=O)OCC)C1c1ccc(Cl)cc1` when you have a moment?
label 1

Dear colleague, could you share the recorded outcome for NCC(O)CSCc1ccc(Cl)cc1 (configuration not stated) when you have a moment?
label 0

Dear colleague, could you share the recorded outcome for `O=c1c(Br)cc2c(-c3ccccc3)c3cc(Br)c(O)c(Br)c3oc-2c1Br` when you have a moment?
label 0
